test system: Paracentrotus lividus; assay: Induction of microtubule destabilization in sea urchin embryo assessed as developmental retardation at later stages of development; also: test concentration or dose not given here
Activity calls are given as the source filed them. The rule behind the calls is not given here.

- structure.as.smiles: "Nc1c(C(=O)c2ccc3c(c2)OCO3)sc2nc(-c3ccncc3)ccc12"
  system: "Paracentrotus lividus"
  Activity: "Active"
- structure.as.smiles: "COc1ccc(C(=O)c2sc3nc4c(c(-c5ccncc5)c3c2N)CCCC4)cc1OC"
  system: "Paracentrotus lividus"
  Activity: "Active"
- structure.as.smiles: "COc1ccc(C(=O)c2sc3nc4c(c(-c5ccccc5)c3c2N)CCCC4)cc1OC"
  system: "Paracentrotus lividus"
  Activity: "Active"

====

Each entry below lists one item and its recorded EC value.
tested on: Paracentrotus lividus; assay: Induction of microtubule destabilization in sea urchin embryo assessed as cleavage arrest exposed for 8 to 20 mins after fertilization and 45 to 55 mins before first mitotic cycle completion measured 2.5 to 5.5 hrs after fertilization

- structure.as.smiles: "COc1ccc(C(=O)c2sc3nc4c(cc3c2N)N2CCC4CC2)cc1OC"
  EC: "> 4 µM"
- structure.as.smiles: "COc1ccccc1-c1ccc2c(N)c(C(=O)c3ccc4c(c3)OCO4)sc2n1"
  EC: "> 4 µM"
- structure.as.smiles: "COc1ccc(C(=O)c2cc(OC)c(OC)c(OC)c2)cc1O"
  EC: "0.05 µM"

Req: Tell me measured EC for Nc1c(C(=O)c2ccc(Br)cc2)sc2ncccc12 please.
Resp: > 4 µM

Req: Tell me measured EC for Nc1c(C(=O)c2ccc(Br)cc2)sc2nc3c(cc12)CCCC3 please.
Resp: > 4 µM

Req: Tell me measured EC for Cc1ccc(C(=O)c2sc3nc(C)ccc3c2N)cc1 please.
Resp: 4 µM

Req: Tell me measured EC for Cc1ccc(C(=O)c2sc3nc4c(cc3c2N)CCCC4)cc1 please.
Resp: 2 µM

Req: Tell me measured EC for COC(=O)Nc1nc2cc(C(=O)c3cccs3)ccc2[nH]1 please.
Resp: 0.001 µM

Req: Tell me measured EC for COc1ccc(C(=O)c2sc3nc4c(cc3c2N)CCCC4)cc1OC please.
Resp: 4 µM

Req: Tell me measured EC for Nc1c(C(=O)Nc2ccccc2)sc2nc3c(cc12)CCCC3 please.
Resp: 0.05 µM

Req: Tell me measured EC for COc1ccc(C(=O)c2sc3nc4c(c(-c5ccncc5)c3c2N)CCCC4)cc1OC please.
Resp: > 4 µM

Req: Tell me measured EC for Nc1c(C(=O)c2ccc3c(c2)OCO3)sc2nc3c(c(C(F)(F)F)c12)CCCC3 please.
Resp: > 4 µM

Req: Tell me measured EC for Nc1c(C(=O)c2ccc3c(c2)OCO3)sc2nc(-c3ccncc3)ccc12 please.
Resp: > 4 µM

Req: Tell me measured EC for Cc1ccc2c(N)c(C(=O)c3ccc(Cl)cc3)sc2n1 please.
Resp: > 4 µM

Req: Tell me measured EC for Nc1c(C(=O)c2ccccc2)sc2nc3c(cc12)CCCC3 please.
Resp: 0.2 µM

Req: Tell me measured EC for Cc1cccc(NC(=O)c2sc3nc4c(cc3c2N)CCC4)c1C please.
Resp: 0.5 µM

Req: Tell me measured EC for COc1ccc(C(=O)c2sc3nc4c(c(-c5ccccc5)c3c2N)CCCC4)cc1OC please.
Resp: > 4 µM

Req: Tell me measured EC for COc1ccc(C(=O)c2sc3nc(-c4cccs4)ccc3c2N)cc1OC please.
Resp: > 4 µM

Req: Tell me measured EC for Cc1cc(C)c2c(N)c(C(=O)c3ccc4c(c3)OCCO4)sc2n1 please.
Resp: > 4 µM

Req: Tell me measured EC for Nc1c(C(=O)Nc2cccc(C(F)(F)F)c2)sc2nc3c(cc12)CCCCC3 please.
Resp: > 4 µM

Req: Tell me measured EC for Nc1c(C(=O)Nc2ccccc2)sc2nc3c(cc12)CCCCC3 please.
Resp: 0.04 µM
